testTarget: T1, Ecm16 (Streptomyces lasalocidi, UniProt Q0X0A9 1-792)
T1 sequence: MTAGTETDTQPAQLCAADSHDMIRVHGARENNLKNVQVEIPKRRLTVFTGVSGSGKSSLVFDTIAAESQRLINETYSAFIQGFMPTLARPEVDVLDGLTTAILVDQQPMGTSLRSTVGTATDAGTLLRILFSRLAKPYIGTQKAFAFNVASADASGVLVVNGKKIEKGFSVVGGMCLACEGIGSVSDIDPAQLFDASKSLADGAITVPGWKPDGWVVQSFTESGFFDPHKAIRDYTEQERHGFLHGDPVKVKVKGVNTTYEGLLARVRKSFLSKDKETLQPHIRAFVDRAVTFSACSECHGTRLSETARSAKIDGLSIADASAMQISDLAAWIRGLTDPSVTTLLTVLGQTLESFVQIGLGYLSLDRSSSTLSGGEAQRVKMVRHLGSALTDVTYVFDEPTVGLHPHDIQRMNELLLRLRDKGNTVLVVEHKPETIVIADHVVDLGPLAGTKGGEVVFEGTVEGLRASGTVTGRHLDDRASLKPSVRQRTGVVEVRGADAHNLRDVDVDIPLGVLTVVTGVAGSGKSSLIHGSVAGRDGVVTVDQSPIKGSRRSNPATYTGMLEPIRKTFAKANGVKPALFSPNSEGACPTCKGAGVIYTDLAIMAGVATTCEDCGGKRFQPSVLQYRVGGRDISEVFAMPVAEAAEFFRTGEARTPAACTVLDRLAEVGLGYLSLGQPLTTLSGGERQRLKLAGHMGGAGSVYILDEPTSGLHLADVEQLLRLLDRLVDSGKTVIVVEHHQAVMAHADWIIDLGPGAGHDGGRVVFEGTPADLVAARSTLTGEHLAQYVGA
experimentalProtocol: fluorescence polarization; echinomycin-bound DNA; apparent KD, Hill fit; FP: 50 mM HEPES pH 7.5, 50 mM NaCl, 50 nM DNA, 4-512 nM protein, temperature not stated; EMSA: same buffer plus 0.1 mg/ml BSA, 50 nM DNA, echinomycin:DNA 1.1:1, 15 min at room temperature, 6% native gel at 4 °C
conditionNotes: protein: recombinant; tags: His (pET28a, Ni-NTA); chain copies: 2; label: 5'-FAM on both strands; blunt; self-complementary
valueType: pKd
FYI, pKd means -log10 of a concentration in mol per litre.

Using known records, supply pKd for FAM 32-bp DNA (dsDNA) DNA 1: AGTGATCAGTGGTTACGTAACCACTGATCACT DNA 2: AGTGATCAGTGGTTACGTAACCACTGATCACT
7.93
